System: Streptococcus pneumoniae
Assay: Antibacterial activity against erythromycin-resistant Streptococcus pneumoniae SPN19-14 assessed as inhibition of visible bacterial growth incubated for 18 hrs by broth microdilution method
Format: functional
Listed compounds paired with reported MIC

STRUCTURE AS SMILES	MIC
CC[C@H]1OC(=O)[C@@](C)(F)C(=O)[C@H](C)[C@@H](O[C@@H]2O[C@H](C)C[C@H](N(C)C)[C@H]2O)[C@](C)(OC)C[C@@H](C)C(=O)[C@H](C)[C@H]2N(CCCOC(=O)Nc3ccc4c(c3)OCO4)C(=O)O[C@]12C	< 0.03 µg/mL
CC[C@H]1OC(=O)[C@@](C)(F)C(=O)[C@H](C)[C@@H](O[C@@H]2O[C@H](C)C[C@H](N(C)C)[C@H]2O)[C@](C)(OC)C[C@@H](C)C(=O)[C@H](C)[C@H]2N(CCCOC(=O)Nc3ccc(C)cc3)C(=O)O[C@]12C	< 0.03 µg/mL
CC[C@H]1OC(=O)[C@@](C)(F)C(=O)[C@H](C)[C@@H](O[C@@H]2O[C@H](C)C[C@H](N(C)C)[C@H]2O)[C@](C)(OC)C[C@@H](C)C(=O)[C@H](C)[C@H]2N(CCCOC(=O)Nc3ccc(SC)cc3)C(=O)O[C@]12C	0.25 µg/mL

Next, consider the following compound.
Give MIC for the following compound: CC[C@H]1OC(=O)[C@@](C)(F)C(=O)[C@H](C)[C@@H](O[C@@H]2O[C@H](C)C[C@H](N(C)C)[C@H]2O)[C@](C)(OC)C[C@@H](C)C(=O)[C@H](C)[C@H]2N(CCCOC(=O)Nc3cccc(SC)c3)C(=O)O[C@]12C < 0.03 µg/mL

---

Tested on: Streptococcus pneumoniae
Experiment: Antibacterial activity against erythromycin-resistant Streptococcus pneumoniae SPN19-14 assessed as inhibition of visible bacterial growth incubated for 18 hrs by broth microdilution method
Type: functional
Listed compounds paired with reported log10(MIC)
In plain terms, each number is the log10 of measured MIC in µg/mL.

Illustrative cases are given below, each with its answer.
COMPOUND	log10(MIC)
CC[C@H]1OC(=O)[C@@](C)(F)C(=O)[C@H](C)[C@@H](O[C@@H]2O[C@H](C)C[C@H](N(C)C)[C@H]2O)[C@](C)(OC)C[C@@H](C)C(=O)[C@H](C)[C@H]2N(CCCOC(=O)Nc3ccccc3C)C(=O)O[C@]12C	-0.90
CC[C@H]1OC(=O)[C@@](C)(F)C(=O)[C@H](C)[C@@H](O[C@@H]2O[C@H](C)C[C@H](N(C)C)[C@H]2O)[C@](C)(OC)C[C@@H](C)C(=O)[C@H](C)[C@H]2N(CCCOC(=O)Nc3cccc(F)c3C)C(=O)O[C@]12C	-0.90
CC[C@H]1OC(=O)[C@@](C)(F)C(=O)[C@H](C)[C@@H](O[C@@H]2O[C@H](C)C[C@H](N(C)C)[C@H]2O)[C@](C)(OC)C[C@@H](C)C(=O)[C@H](C)[C@H]2N(CCCOC(=O)Nc3ccc(C(C)C)cc3)C(=O)O[C@]12C	0.00

Give log10(MIC) for the following compound: CC[C@H]1OC(=O)[C@@](C)(F)C(=O)[C@H](C)[C@@H](O[C@@H]2O[C@H](C)C[C@H](N(C)C)[C@H]2O)[C@](C)(OC)C[C@@H](C)C(=O)[C@H](C)[C@H]2N(CCCOC(=O)Nc3cccnc3)C(=O)O[C@]12C -0.90
